# TARGET_OR_TEST_SYSTEM: T1, Epstein-Barr virus BHRF1 a.a. 1-161 with C-terminal avi-6his tag (Epstein-Barr virus)
# T1 construct: also called EBV BHRF1; BHRF1-biotin
# T1 chain: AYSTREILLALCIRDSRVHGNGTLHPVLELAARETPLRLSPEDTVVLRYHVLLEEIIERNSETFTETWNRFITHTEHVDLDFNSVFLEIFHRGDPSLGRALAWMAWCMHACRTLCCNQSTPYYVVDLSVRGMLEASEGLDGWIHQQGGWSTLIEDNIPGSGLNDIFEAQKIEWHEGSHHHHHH
# PROTOCOL: yeast display library, FACS sort at 400 nM BHRF1, deep sequencing
READOUT_LABEL: Log2 enrichment ratio (log2)
Give bare numbers, in log2.

Worked examples follow.
Index 09 (designed binder) GKEAKKRIQEALEEAKRKAEKLLREHEKKKKEHLLGDKRDREKTEETDKWIAEALMLIGDIFNLYMKFEWEKEREKKLGLLREEEEKEVEDEAKDAYLKALKLAYLVSKKGHEVAELG : -2.05
Index 30 (designed binder) GSRWFDAEDKMRERKDRAILQLLFMLWIIFYILWYGDDTEEAKRKAMAAWIALALIGIGDIFNAEAEFLEELERAIKQGQVSDQLKEELLKRMEDDKRDLEKRLYEFLLKALLQWMQG : -4.1
Index 26 (designed binder) GRFAERLFKKMLIKQLLNTQYFRDQLKQLKDRSKKYDASDDDKDEATHRWIAFALMAIGDVFNDKLEIELLIELFAKYGLVHEEERKEFRKRLDEFEKIFRKWLDELKKLALEALNQG : -2

# context switch: different binder, same Log2 enrichment ratio
# input Suppose we examine the binder Index 32 (designed binder) GGDENKLKDYVKDEIERGLNEIEDLARKIEQLARRFFPKDEERMKFTMWWIAAALMAIGDIFNAKEYARERAEEIRRKGLRREEEARRIEKFIEEEAEKAAKKAAKLGDHLAEELFRG ; what Log2 enrichment ratio value has been reported?
# output -2.56
